Attribute: melting point

CS(=O)(=O)Nc1ccccc1: 93 to 97 °C
OC1CCOc2ccccc21 (stereo not drawn): 41 to 45 °C
Cn1c(CO)cnc1S: 220 to 222 °C
N#Cc1ccc(O)c([N+](=O)[O-])c1: 143 to 148 °C
N#Cc1cccnc1N1CCNCC1: 76 to 78 °C

Reported melting point of NC(=O)C1CCCN1C(=O)COC(=O)c1ccccc1 (stereo not drawn) : 194 °C

Reported melting point of NNC(=O)C1SCCN1S(=O)(=O)c1ccc(Cl)cc1 (stereo not drawn) : 200 to 201 °C

Reported melting point of `N#Cc1ccccc1COc1ccccc1` : 62 to 64 °C

These data points were gathered from a melting point compilation (Tetko et al.).
